System: HEK-293T
Test: Multiplex assay against HEK293T
Type: toxicity, cell-based
Conditions: human, 24 h, 1 µM, compound concentration 1 uM, replicate 1
Note to self: values exactly at 20% are MET. So Population Hoechst High Intensity Objects (%) at or above 20% is MET, below is NOT MET.

I'd appreciate it if you could say whether COc1cc2c(Nc3ccc(NC(=O)c4ccccc4)cc3)ncnc2cc1OCCCN1CCOCC1 has Population Hoechst High Intensity Objects (%) at least equal to 20%.
MET

I'd appreciate it if you could say whether c1ccc2oc(-c3csc(C4CCN(Cc5nc6ncccc6[nH]5)CC4)n3)cc2c1 has Population Hoechst High Intensity Objects (%) at least equal to 20%.
NOT MET

I'd appreciate it if you could say whether CNc1oc(-c2cccc3ccccc23)nc1C#N has Population Hoechst High Intensity Objects (%) at least equal to 20%.
MET

I'd appreciate it if you could say whether CCOc1cc(N2CCC(O)CC2)ccc1Nc1ncc2c(n1)N(C1CCCC1)CCC(=O)N2C has Population Hoechst High Intensity Objects (%) at least equal to 20%.
NOT MET

I'd appreciate it if you could say whether COc1ccc(NS(=O)(=O)c2sc3ccc(Cl)cc3c2C)cc1N1CCNCC1.Cl has Population Hoechst High Intensity Objects (%) at least equal to 20%.
MET

I'd appreciate it if you could say whether Cc1cc2c(cc1N1C(=O)c3cccc4c(CCCO)ccc(c34)C1=O)n(C)c(=O)n2C has Population Hoechst High Intensity Objects (%) at least equal to 20%.
NOT MET

I'd appreciate it if you could say whether CN(C)C/C=C/C(=O)Nc1cc2c(Nc3ccc(F)c(Cl)c3)ncnc2cc1O[C@H]1CCOC1.O=C(O)/C=C\C(=O)O.O=C(O)/C=C\C(=O)O [AFATINIB DIMALEATE] has Population Hoechst High Intensity Objects (%) at least equal to 20%.
NOT MET

I'd appreciate it if you could say whether CC(C)N1CCC(C)(C)c2cc(C#Cc3ccc(C(=O)O)cc3)ccc21 has Population Hoechst High Intensity Objects (%) at least equal to 20%.
NOT MET

I'd appreciate it if you could say whether CCOc1cc2ncc(C#N)c(Nc3ccc(OCc4cccc(F)c4)c(Cl)c3)c2cc1NC(=O)/C=C/CN(C)C has Population Hoechst High Intensity Objects (%) at least equal to 20%.
NOT MET

I'd appreciate it if you could say whether Cc1cn(-c2cc(NC(=O)c3ccc4c(c3)CN(c3cncnc3)C[C@@H]4C)cc(C(F)(F)F)c2)cn1 has Population Hoechst High Intensity Objects (%) at least equal to 20%.
NOT MET

I'd appreciate it if you could say whether CNC(=O)c1nn(C)c2c1C(C)(C)Cc1cnc(Nc3ccc(N4CCN(C)CC4)cc3)nc1-2 has Population Hoechst High Intensity Objects (%) at least equal to 20%.
NOT MET

I'd appreciate it if you could say whether CNC(=O)c1cc(Oc2ccc(NC(=O)Nc3cc(C(C)(C)C)nn3-c3ccc4ncccc4c3)c(F)c2)ccn1 has Population Hoechst High Intensity Objects (%) at least equal to 20%.
NOT MET

I'd appreciate it if you could say whether COc1cc2c(NC3CCN(C(C)C)CC3)nc(N3CCC(F)(F)CC3)nc2cc1OCCCN1CCCC1 has Population Hoechst High Intensity Objects (%) at least equal to 20%.
MET

I'd appreciate it if you could say whether CCC(=O)O[C@]1(C(=O)SCF)[C@H](C)C[C@H]2[C@@H]3C[C@H](F)C4=CC(=O)C=C[C@]4(C)[C@@]3(F)[C@@H](O)C[C@@]21C [FLUTICASONE PROPIONATE] has Population Hoechst High Intensity Objects (%) at least equal to 20%.
NOT MET

I'd appreciate it if you could say whether Cc1nc(Cc2cccc(C(F)(F)F)c2)sc1-c1ccc(C(N)=O)nc1 [TP-024n] has Population Hoechst High Intensity Objects (%) at least equal to 20%.
NOT MET

I'd appreciate it if you could say whether Cl.Cl.Nc1ncnc2c1c(-c1cccc(OCc3ccccc3)c1)cn2[C@H]1C[C@@H](CN2CCC2)C1 has Population Hoechst High Intensity Objects (%) at least equal to 20%.
MET

----------
System: Fibroblast
Assay: Multiplex assay against human fibroblast
Format: toxicity, cell-based
Details: 12 h, 10 µM, compound concentration 10 uM, replicate 1
Please go through the items and note down their Population Mitotic Cells (%).
Numeric only. Scale: %

According to the records, this molecule CC(C)N1CCC(C)(C)c2cc(C#Cc3ccc(C(=O)O)cc3)ccc21 displays Population Mitotic Cells (%) of 25

According to the records, this molecule c1ccc2oc(-c3csc(C4CCN(Cc5nc6ncccc6[nH]5)CC4)n3)cc2c1 displays Population Mitotic Cells (%) of 36

According to the records, this molecule CCOc1cc(N2CCC(O)CC2)ccc1Nc1ncc2c(n1)N(C1CCCC1)CCC(=O)N2C displays Population Mitotic Cells (%) of 15

According to the records, this molecule O=C(O)c1ccc2cc(-c3ccc(O)c(C45CC6CC(CC(C6)C4)C5)c3)ccc2c1 displays Population Mitotic Cells (%) of 27

According to the records, this molecule Cc1cn(-c2cc(NC(=O)c3ccc4c(c3)CN(c3cncnc3)C[C@@H]4C)cc(C(F)(F)F)c2)cn1 displays Population Mitotic Cells (%) of 28

According to the records, this molecule Cl.Cl.NC1(c2ccc(-c3nc4ccn5c(=O)[nH]nc5c4cc3-c3ccccc3)cc2)CCC1 displays Population Mitotic Cells (%) of 62

According to the records, this molecule CNc1oc(-c2cccc3ccccc23)nc1C#N displays Population Mitotic Cells (%) of 7

According to the records, this molecule CC(C)(C)c1cnc(CSc2cnc(NC(=O)C3CCNCC3)s2)o1 displays Population Mitotic Cells (%) of 24

According to the records, this molecule Cc1cc2c(cc1N1C(=O)c3cccc4c(CCCO)ccc(c34)C1=O)n(C)c(=O)n2C displays Population Mitotic Cells (%) of 31

According to the records, this molecule CCc1cc2c(cc1CC)CC(NC[C@H](O)c1ccc(O)c3[nH]c(=O)ccc13)C2 displays Population Mitotic Cells (%) of 28

According to the records, this molecule COc1cc2c(NC3CCN(C(C)C)CC3)nc(N3CCC(F)(F)CC3)nc2cc1OCCCN1CCCC1 displays Population Mitotic Cells (%) of 38

According to the records, this molecule CNC(=O)c1cc(Oc2ccc(NC(=O)Nc3cc(C(C)(C)C)nn3-c3ccc4ncccc4c3)c(F)c2)ccn1 displays Population Mitotic Cells (%) of 40

According to the records, this molecule CC(=O)c1cc(-c2cc(C(=O)NC3CC3)ccc2C)c2ncccn12 displays Population Mitotic Cells (%) of 39

According to the records, this molecule CN(C)C/C=C/C(=O)Nc1cc2c(Nc3ccc(F)c(Cl)c3)ncnc2cc1O[C@H]1CCOC1.O=C(O)/C=C\C(=O)O.O=C(O)/C=C\C(=O)O [AFATINIB DIMALEATE] displays Population Mitotic Cells (%) of 41

According to the records, this molecule N#Cc1cnc(Nc2cc(NC[C@H]3CNCCO3)c(C(F)(F)F)cn2)cn1 displays Population Mitotic Cells (%) of 30

According to the records, this molecule Nc1nc2c(c(N3CCNCC3)n1)CCC1=C2[C@@H]2CCCC[C@@H]2O1 displays Population Mitotic Cells (%) of 43

According to the records, this molecule Cl.Cl.Nc1ncnc2c1c(-c1cccc(OCc3ccccc3)c1)cn2[C@H]1C[C@@H](CN2CCC2)C1 displays Population Mitotic Cells (%) of 40

According to the records, this molecule CCC(=O)O[C@]1(C(=O)SCF)[C@H](C)C[C@H]2[C@@H]3C[C@H](F)C4=CC(=O)C=C[C@]4(C)[C@@]3(F)[C@@H](O)C[C@@]21C [FLUTICASONE PROPIONATE] displays Population Mitotic Cells (%) of 37

According to the records, this molecule COc1cc2c(Nc3ccc(NC(=O)c4ccccc4)cc3)ncnc2cc1OCCCN1CCOCC1 displays Population Mitotic Cells (%) of 17

According to the records, this molecule CN(C)CCOc1ccc(-c2nc(-c3ccncc3)c(-c3ccc4c(c3)CC/C4=N\O)[nH]2)cc1 displays Population Mitotic Cells (%) of 15

According to the records, this molecule Nc1ccc(C(=O)Nc2cccc(-c3nc(N4CCOCC4)c4oc5ncccc5c4n3)c2)cn1 displays Population Mitotic Cells (%) of 45

According to the records, this molecule Cc1nc(Cc2cccc(C(F)(F)F)c2)sc1-c1ccc(C(N)=O)nc1 [TP-024n] displays Population Mitotic Cells (%) of 36

According to the records, this molecule CCCn1c(=O)c2[nH]c(C34CC5CC(CC3C5)C4)nc2n(CCC)c1=O displays Population Mitotic Cells (%) of 53

According to the records, this molecule COc1ccc(NS(=O)(=O)c2sc3ccc(Cl)cc3c2C)cc1N1CCNCC1.Cl displays Population Mitotic Cells (%) of 24

According to the records, this molecule CCn1c(-c2nonc2N)nc2cnc(Oc3cccc(NC(=O)c4ccc(OCCN5CCOCC5)cc4)c3)cc21 [GSK-269962A] displays Population Mitotic Cells (%) of 44

According to the records, this molecule CCOc1cc2ncc(C#N)c(Nc3ccc(OCc4cccc(F)c4)c(Cl)c3)c2cc1NC(=O)/C=C/CN(C)C displays Population Mitotic Cells (%) of 23
